System: THRa:RXRa (NR concentration 90 nM, RXRa partner concentration 90 nM)
assay_notes: PBM binding z-score (relative to random genomic background probes); higher = stronger binding; sequences stand for … in GC…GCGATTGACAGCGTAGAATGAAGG
Bucketed by reported PBM binding z-score, buckets being label 0 (below 2), label 1 (2 to below 4), label 2 (4 or more)

Solved entries (count: 5):
>  <sequence_string>
CGAAGTAGGTCAAAGGACAGTGAAAGGCGACGTA

>  <experimental_target>
THRa:RXRa (NR concentration 90 nM, RXRa partner concentration 90 nM)

>  <class>
label 1

$$$$
>  <sequence_string>
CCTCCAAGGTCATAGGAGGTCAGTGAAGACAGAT

>  <experimental_target>
THRa:RXRa (NR concentration 90 nM, RXRa partner concentration 90 nM)

>  <class>
label 2

$$$$
>  <sequence_string>
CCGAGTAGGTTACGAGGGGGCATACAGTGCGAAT

>  <experimental_target>
THRa:RXRa (NR concentration 90 nM, RXRa partner concentration 90 nM)

>  <class>
label 1

$$$$
>  <sequence_string>
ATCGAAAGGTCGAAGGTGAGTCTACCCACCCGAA

>  <experimental_target>
THRa:RXRa (NR concentration 90 nM, RXRa partner concentration 90 nM)

>  <class>
label 1

$$$$
>  <sequence_string>
GCTGCTCGGTCAACTGATGGTCAGCTAAAGCTCG

>  <experimental_target>
THRa:RXRa (NR concentration 90 nM, RXRa partner concentration 90 nM)

>  <class>
label 0

$$$$

Consider the record given below.
// query Sort `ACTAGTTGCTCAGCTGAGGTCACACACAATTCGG` into one of the categories.
// result label 2

###

Can you tell me PBM binding z-score for the items I'm about to list?
Test system: PPARg:RXRa IVT, anti-PPARg (NR concentration 270 nM, RXRa partner concentration 90 nM)
assay_notes: PBM binding z-score (relative to random genomic background probes); higher = stronger binding; sequences stand for … in GC…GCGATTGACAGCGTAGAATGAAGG
Answers are plain numbers.

Past entries and their recorded results:
>  <sequence_string>
TCGAGTAGGTTACGGGGGCTTTCAGGGATGAAGA

>  <PBM binding z-score>
4.61

$$$$
>  <sequence_string>
AGATGTAGGTTAGGGTCATTCAGAAAGTAGGGAA

>  <PBM binding z-score>
6.36

$$$$
>  <sequence_string>
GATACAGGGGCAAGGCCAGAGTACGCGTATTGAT

>  <PBM binding z-score>
0.691

$$$$
>  <sequence_string>
ATATGTACGTTAGGGTCATTCAGAAAGTAGGGAA

>  <PBM binding z-score>
2.04

$$$$

Quick one: give me PBM binding z-score for each item below, same order please.
1. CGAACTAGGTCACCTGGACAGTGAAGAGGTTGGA
2. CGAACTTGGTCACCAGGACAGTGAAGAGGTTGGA
3. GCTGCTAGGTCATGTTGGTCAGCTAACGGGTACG

// result
[8.6, 2.17, 3.3]

###

Tested on: PPARg DBDmut IVT, anti-PPARg (DBD mutation: PPARg1 K132A/R137A, NR concentration 270 nM)
assay_notes: PBM binding z-score (relative to random genomic background probes); higher = stronger binding; sequences stand for … in GC…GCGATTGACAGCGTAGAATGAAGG
Can you tell me PBM binding z-score for the items I'm about to list?
Answers are plain numbers.

Past entries and their recorded results:
>  <sequence_string>
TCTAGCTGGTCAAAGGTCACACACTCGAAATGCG

>  <test_value>
1.12

$$$$
>  <sequence_string>
ATATCTAGGTTAGGGTCATTCAGAAAGTAGGGAA

>  <test_value>
2.23

$$$$
>  <sequence_string>
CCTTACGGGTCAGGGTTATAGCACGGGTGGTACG

>  <test_value>
-0.847

$$$$
>  <sequence_string>
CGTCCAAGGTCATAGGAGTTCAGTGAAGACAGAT

>  <test_value>
0.8

$$$$
>  <sequence_string>
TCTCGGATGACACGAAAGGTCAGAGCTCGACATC

>  <test_value>
1.03

$$$$

Quick one: give me PBM binding z-score for each item below, same order please.
1. ATATGTAGGTTAGGGACATTCAGAAAGTAGGGAA
2. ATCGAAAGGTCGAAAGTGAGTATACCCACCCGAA
3. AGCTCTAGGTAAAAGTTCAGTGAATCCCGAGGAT
4. ACTAGTTGTTCAGCTGAGGTCACACACAATTCGG
5. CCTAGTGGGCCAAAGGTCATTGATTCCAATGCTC
6. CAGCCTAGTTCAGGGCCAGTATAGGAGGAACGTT

// result
1. 1.59
2. 0.905
3. 0.333
4. 0.948
5. 0.985
6. -0.941

Quick one: give me PBM binding z-score for each item below, same order please.
1. CCTCGGAGGTCAGAAGGTCAGAGCTGTCCGCTTT
2. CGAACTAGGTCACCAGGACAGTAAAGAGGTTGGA
3. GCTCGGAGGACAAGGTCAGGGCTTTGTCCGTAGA
4. AGTCAAAGTTCACTAGGCAACGTAAGATTCAGCT
5. ATTTGTAGGTTATCGGGTCATTCAGTTTGCGCAT
6. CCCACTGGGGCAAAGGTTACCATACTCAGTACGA
7. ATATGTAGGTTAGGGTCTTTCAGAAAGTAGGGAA
8. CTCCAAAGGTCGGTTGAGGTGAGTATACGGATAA

// result
1: -1.86; 2: 5.2; 3: -0.233; 4: 0.663; 5: 2.88; 6: -0.557; 7: 2.64; 8: -0.816

Quick one: give me PBM binding z-score for each item below, same order please.
1. CGAACTAGCTCAAGGACAGTGAATCTCCGCACGC
2. ATATGTAGGTGAAGGGTCATTCAGGTTGGTTCGC
3. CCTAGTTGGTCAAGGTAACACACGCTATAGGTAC
4. CCTAGTTGGTCAGGAGGCCACACACCGGATATGA

// result
1: -0.183; 2: 4.69; 3: 0.573; 4: -0.424

###

Can you tell me PBM binding z-score for the items I'm about to list?
System: VDR:RXRa (NR concentration 270 nM, RXRa partner concentration 90 nM)
assay_notes: PBM binding z-score (relative to random genomic background probes); higher = stronger binding; sequences stand for … in GC…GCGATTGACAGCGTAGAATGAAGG
One number for each entry.

Past entries and their recorded results:
>  <sequence_string>
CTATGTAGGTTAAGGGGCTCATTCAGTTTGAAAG

>  <PBM binding z-score>
0.993

$$$$
>  <sequence_string>
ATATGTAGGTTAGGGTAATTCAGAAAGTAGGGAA

>  <PBM binding z-score>
1.09

$$$$
>  <sequence_string>
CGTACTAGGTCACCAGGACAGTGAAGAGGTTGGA

>  <PBM binding z-score>
1.93

$$$$
>  <sequence_string>
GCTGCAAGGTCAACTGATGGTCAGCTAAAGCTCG

>  <PBM binding z-score>
4.66

$$$$
>  <sequence_string>
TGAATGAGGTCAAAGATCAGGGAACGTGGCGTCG

>  <PBM binding z-score>
5.6

$$$$

Quick one: give me PBM binding z-score for each item below, same order please.
1. ACTAGTAGGCCAAGGGTCACTCAAGATTAGTCCG
2. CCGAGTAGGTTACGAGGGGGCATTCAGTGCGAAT
3. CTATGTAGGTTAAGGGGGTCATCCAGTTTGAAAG
4. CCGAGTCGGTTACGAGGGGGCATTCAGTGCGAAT
5. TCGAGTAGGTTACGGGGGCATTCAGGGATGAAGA

// result
1: 2.93; 2: 5.35; 3: 7.32; 4: 3.65; 5: 4

Quick one: give me PBM binding z-score for each item below, same order please.
1. TTACCAAGGTAAAAGGTCGTTGATGCACGCCTTG
2. ATCTCTAGGTTAAAGTTCAGTGAATCCCGAGGAT
3. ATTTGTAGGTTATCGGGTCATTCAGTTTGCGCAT
4. ATATGTAGGTCATCGGGTCATTCAGTTTGCGCAT
5. ACATGTAGGTTAGGGTCATTCAGAAAGTAGGGAA
6. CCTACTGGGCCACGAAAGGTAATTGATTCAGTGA

// result
1: 2.6; 2: 2.76; 3: 5.57; 4: 6.28; 5: 4.52; 6: -0.34

Quick one: give me PBM binding z-score for each item below, same order please.
1. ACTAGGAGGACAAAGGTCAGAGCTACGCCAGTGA
2. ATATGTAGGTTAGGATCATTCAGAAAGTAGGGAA
3. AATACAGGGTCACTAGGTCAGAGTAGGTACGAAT
4. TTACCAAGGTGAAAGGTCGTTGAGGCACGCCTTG
5. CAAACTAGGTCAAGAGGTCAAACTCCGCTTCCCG
6. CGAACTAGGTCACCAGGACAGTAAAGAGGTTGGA

// result
1: 3.45; 2: 0.744; 3: 5.25; 4: 3.55; 5: 6.49; 6: 2.05

Quick one: give me PBM binding z-score for each item below, same order please.
1. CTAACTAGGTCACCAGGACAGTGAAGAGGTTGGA
2. CCTAGTAGGTTACGAGGGGGCATTCAGTGCGAAT

// result
[2.06, 5.12]

Quick one: give me PBM binding z-score for each item below, same order please.
1. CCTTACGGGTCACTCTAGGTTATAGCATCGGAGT
2. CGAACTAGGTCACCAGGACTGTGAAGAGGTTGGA

// result
1. 3.67
2. 2.26
